target: Human α-glucosidase; assay: Human α-glucosidase assay, p-nitrophenyl linked substrates; type: biochemical

>  <MOLECULAR_STRING>
CCCCN1C[C@H](O)[C@@H](O)[C@H](O)[C@H]1CO

>  <IC50>
< 20 µM

$$$$

* * *

Molecular target: Human β-galactosidase (Homo sapiens)
Sequence (P16278 29-677): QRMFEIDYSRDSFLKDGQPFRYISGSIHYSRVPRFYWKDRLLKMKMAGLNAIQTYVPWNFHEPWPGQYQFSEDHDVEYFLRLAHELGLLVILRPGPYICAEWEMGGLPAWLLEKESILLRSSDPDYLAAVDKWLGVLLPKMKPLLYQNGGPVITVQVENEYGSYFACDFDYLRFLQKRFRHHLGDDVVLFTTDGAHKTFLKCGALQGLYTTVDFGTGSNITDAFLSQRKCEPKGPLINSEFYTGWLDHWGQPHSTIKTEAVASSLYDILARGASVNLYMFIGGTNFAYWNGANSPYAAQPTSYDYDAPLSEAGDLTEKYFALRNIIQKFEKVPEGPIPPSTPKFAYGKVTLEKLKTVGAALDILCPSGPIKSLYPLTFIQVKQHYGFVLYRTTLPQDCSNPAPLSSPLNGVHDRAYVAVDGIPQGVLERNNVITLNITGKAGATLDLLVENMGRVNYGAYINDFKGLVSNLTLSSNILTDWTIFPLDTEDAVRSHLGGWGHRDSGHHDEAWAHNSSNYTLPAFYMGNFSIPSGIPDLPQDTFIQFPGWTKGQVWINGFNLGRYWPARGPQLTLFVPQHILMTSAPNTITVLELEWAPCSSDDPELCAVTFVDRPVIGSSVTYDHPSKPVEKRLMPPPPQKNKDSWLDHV
Assay: Human β-galactosidase assay
Assay type: biochemical

>  <MOLECULAR_STRING>
CCCCN1C[C@H](O)[C@@H](O)[C@@H](O)[C@H]1CO

>  <Ki (µM)>
40

$$$$
